tgt: BRAF G469A (Homo sapiens, UniProt P15056, G469A)
Construct: Horizon Discovery (HCT-116 BRAF−/− cells); host or cells: HCT-116 BRAF−/− cells, clone 34, lentiviral transduction
Sequence (P15056 whole entry G469A): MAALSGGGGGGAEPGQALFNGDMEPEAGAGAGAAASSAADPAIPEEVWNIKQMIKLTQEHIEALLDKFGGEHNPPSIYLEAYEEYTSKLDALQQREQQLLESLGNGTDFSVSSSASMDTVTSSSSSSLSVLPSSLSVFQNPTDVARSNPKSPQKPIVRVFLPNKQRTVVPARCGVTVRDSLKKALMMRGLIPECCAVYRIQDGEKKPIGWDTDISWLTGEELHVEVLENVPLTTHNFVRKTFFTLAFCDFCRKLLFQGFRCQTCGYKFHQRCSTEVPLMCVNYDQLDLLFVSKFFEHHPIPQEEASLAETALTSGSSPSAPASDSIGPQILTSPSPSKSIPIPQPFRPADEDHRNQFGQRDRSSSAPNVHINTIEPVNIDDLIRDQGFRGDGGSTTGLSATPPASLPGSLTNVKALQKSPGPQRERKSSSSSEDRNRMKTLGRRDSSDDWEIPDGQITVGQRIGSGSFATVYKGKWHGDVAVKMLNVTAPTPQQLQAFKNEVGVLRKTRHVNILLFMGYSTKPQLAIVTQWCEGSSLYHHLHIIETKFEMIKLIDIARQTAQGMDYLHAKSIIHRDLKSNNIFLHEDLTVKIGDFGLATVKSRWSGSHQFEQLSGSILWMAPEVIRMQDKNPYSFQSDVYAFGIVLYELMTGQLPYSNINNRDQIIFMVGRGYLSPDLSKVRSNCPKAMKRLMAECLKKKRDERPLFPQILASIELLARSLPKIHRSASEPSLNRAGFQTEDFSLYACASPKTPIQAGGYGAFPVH
assay-protocol: BRAF HiBiT degradation assay, C-terminal HiBiT-tagged BRAF G469A overexpressed in HCT-116 BRAF−/− cells (clone 34), Nano-Glo HiBiT Lytic assay
Format: cell-based
assay-conditions: BRAF G469A (Class 2), HCT-116 BRAF−/− cells; DC50 at 50% degradation
observed-property: DC50

compound	tgt	observed-property	endpoint-value
O=C1CC[C@H](c2ccc(N3CCC(CN4CCN(c5ccc(-n6cc(-c7cc(Cl)cc(NS(=O)(=O)N8CC[C@@H](F)C8)c7F)c(-c7ccncc7)n6)c(F)c5)CC4)CC3)cc2)C(=O)N1	BRAF G469A (Homo sapiens, UniProt P15056, G469A)	DC50	10 to 50 nM
O=C1CCC(c2ccc(N3CCC(CN4CCN(c5ccc(-n6cc(-c7cc(Cl)cc(NS(=O)(=O)N8CC[C@@H](F)C8)c7F)c(-c7ccncc7)n6)nc5)CC4)CC3)nc2)C(=O)N1 (mixture of isomers)	BRAF G469A (Homo sapiens, UniProt P15056, G469A)	DC50	< 10 nM
O=C1CCC(c2ccc(N3CCC(CN4CCN(c5ccc(-n6cc(-c7cc(C(F)F)cc(NS(=O)(=O)N8CCCC8)c7F)c(-c7ccncc7)n6)cc5)CC4)CC3)nc2)C(=O)N1 (racemic)	BRAF G469A (Homo sapiens, UniProt P15056, G469A)	DC50	< 10 nM

Record O=C1CC[C@H](c2ccc(N3CCC(CN4CCN(c5ccc(-n6cc(-c7cc(Cl)cc(NS(=O)(=O)N8CCCC8)c7F)c(-c7ccncc7)n6)cc5)CC4)CC3)cc2F)C(=O)N1 ; system BRAF G469A (Homo sapiens, UniProt P15056, G469A); DC50 = < 10 nM

Record for O=C1CC[C@H](c2ccc(N3CCC(CN4CCN(c5ccc(-n6cc(-c7cc(Cl)cc(NS(=O)(=O)N8CC(F)C8)c7F)c(-c7ccncc7)n6)cc5)CC4)CC3)nc2)C(=O)N1 under target or system BRAF G469A (Homo sapiens, UniProt P15056, G469A): DC50 reported as < 10 nM

Bench note, BRAF G469A (Homo sapiens, UniProt P15056, G469A): entry C[C@@H]1CN(c2ccc(-n3cc(-c4cc(Cl)cc(NS(=O)(=O)N5CC[C@@H](F)C5)c4F)c(-c4ccncc4)n3)nc2)CCN1CC1CCN(c2ccc(N3CCC(=O)NC3=O)cc2)CC1 , its DC50 = 50 to 500 nM

BRAF G469A (Homo sapiens, UniProt P15056, G469A) assay, compound CCN(C)S(=O)(=O)Nc1cc(Cl)cc(-c2cn(-c3ccc(N4CCN(CC5CCN(c6ccc(C7CCC(=O)NC7=O)cn6)CC5)CC4)cc3)nc2-c2ccncc2)c1F (racemic) , recorded DC50 = 10 to 50 nM

BRAF G469A (Homo sapiens, UniProt P15056, G469A) data for O=C1CC[C@H](c2ccc(N3CCC(CN4CCN(c5ccc(-n6cc(-c7cc(Cl)cc(NS(=O)(=O)N8CC[C@@H](F)C8)c7F)c(-c7ccncc7)n6)cc5)CC4)CC3)cc2)C(=O)N1 ; its DC50: < 10 nM

Tested system BRAF G469A (Homo sapiens, UniProt P15056, G469A); DC50 recorded for CCC(C)S(=O)(=O)Nc1cc(Cl)cc(-c2cn(-c3ccc(N4CCN(CC5CCN(c6ccc([C@H]7CCC(=O)NC7=O)cc6)CC5)CC4)cc3)nc2-c2ccncc2)c1F (mixture of isomers) was 10 to 50 nM

For the compound O=C1CC[C@H](c2ccc(N3CCC(CN4CCN(c5ccc(-n6cc(-c7cc(Cl)cc(NS(=O)(=O)N8CC(F)C8)c7F)c(-c7ccncc7)n6)cc5)CC4)CC3)cc2)C(=O)N1 , the measured DC50 on BRAF G469A (Homo sapiens, UniProt P15056, G469A) was < 10 nM

Assay BRAF G469A (Homo sapiens, UniProt P15056, G469A), sample CCCS(=O)(=O)Nc1cccc(-c2nc(C3CCN(C(=O)CC4CCN(C5CCN(c6ccc7c(c6)C(=O)N(C6CCC(=O)NC6=O)C7=O)CC5)CC4)CC3)sc2-c2ccnc(N)n2)c1F (racemic) , DC50 read: > 500 nM

Reported BRAF G469A (Homo sapiens, UniProt P15056, G469A) DC50 for item O=C1CCN(c2ccc(N3CCC(CN4CCN(c5cnc(-n6cc(-c7cc(Cl)cc(NS(=O)(=O)N8CCCC8)c7F)c(-c7ccncc7)n6)nc5)CC4)CC3)cc2)C(=O)N1 was > 500 nM

The recorded DC50 with BRAF G469A (Homo sapiens, UniProt P15056, G469A) for O=C1CC[C@H](c2ccc(N3CCC(CN4CCN(c5ccc(-n6cc(-c7cc(Cl)cc(NS(=O)(=O)N8CCCC8)c7F)c(-c7ccncc7)n6)nc5)CC4)CC3)cc2)C(=O)N1 was 10 to 50 nM

Record O=C1CCC(c2ccc(N3CCC(CN4CCN(c5cnc(-n6cc(-c7cc(Cl)cc(NS(=O)(=O)N8CCCC8)c7F)c(-c7ccncc7)n6)nc5)CC4)CC3)nc2)C(=O)N1 (racemic) / BRAF G469A (Homo sapiens, UniProt P15056, G469A), DC50 recorded as < 10 nM
